Test system: Reticulocyte Depletion Signature (Alas2 and peripherin probes), liver
Settings: liver data; highest training treatment normalised to 100; * = p < 0.01
experimentalReadout: Signature Projection Score (SPS)
Response field accepts a number only; no unit should be typed.

Find the recorded Signature Projection Score (SPS) belonging to C[C@]12CC[C@@H]3c4ccc(O)cc4CC[C@H]3[C@@H]1CC[C@@H]2O [BETA ESTRADIOL] and report it. 27

Can you check O=C(O)CCCc1ccc(N(CCCl)CCCl)cc1 [CHLORAMBUCIL] next? 33

Repeat with O=NN(CCCl)C(=O)NCCCl [CARMUSTINE] 42

Next: O=NN(CCCl)C(=O)NC1CCCCC1 [LOMUSTINE] 18
